Data provenance is PubChem BioAssay (NCI).

tested on: OVCAR-4 ovarian; test: NCI tumour cell line growth inhibition, 48 h
experimental_endpoint: TGI

Prompt line: # input molecule: COc1ccc2c(c1)C(=O)/C(=C/c1ccc(OCC(=O)c3ccc(Cl)cc3)cc1)O2 ; wanted: its TGI
Response line: 36.7 µM

Prompt line: # TGI lookup, item Nc1ncn([C@@H]2C=C(CO)C(O)C2O)c(=O)n1 (stereo partly drawn)
Response line: > 100 µM

Prompt line: Item under review: O=[N+]([O-])c1ccc2nc(/C=C(\O)c3ccccc3)c(/C=C(\O)c3ccc(Cl)cc3)nc2c1 . Reported TGI?
Response line: > 100 µM

Prompt line: Which value of TGI has been reported for CCOc1ccc(NC(=O)/C(=C/c2ccccc2)C(C)=O)cc1 in the records?
Response line: 27.5 µM

Prompt line: Dear colleague, I am looking for the recorded TGI of the following molecule: CSc1nc(NC2OC(CO)C(O)C(O)C2O)c(N)c(=O)n1C (stereo not drawn)
Response line: > 100 µM

Prompt line: Request the reported TGI associated with Cn1c(=O)c2c(nc3n2C(CCl)CO3)n(C)c1=O (stereo not drawn)
Response line: > 100 µM

Prompt line: Could you share which TGI value was measured for O=S(=O)(Nc1ccc2ccc3cccc4ccc1c2c34)c1ccccc1 ?
Response line: > 100 µM

Prompt line: Fill in: TGI of Cc1ccc(C)c(NC(=O)CCC(=O)CC(=O)C(C)(C)C)c1 is ___
Response line: > 100 µM

Prompt line: Could you share which TGI value was measured for O=C(CCl)Nc1ccc(-c2nc3ccccc3s2)cc1 ?
Response line: 15.2 µM

Prompt line: Please give the measured TGI for this molecule: c1ccc2c(-c3ccnc(-c4c[nH]c5ccccc45)n3)c[nH]c2c1
Response line: > 100 µM

Prompt line: Return reported TGI; argument: COc1cc(-c2[nH]ncc2CCCC(=O)Nc2ccccc2[N+](=O)[O-])ccc1O
Response line: > 100 µM

Prompt line: Request the reported TGI associated with N/C(=N\N=C=C1C(=O)Nc2ccc(F)cc21)NO
Response line: > 100 µM

Prompt line: Which TGI value is on record for COc1cc2c(cc1OCCCN1CCN(CCCOc3cc4c(cc3OC)C(=O)C3CCC[C@H]3C=N4)CC1)N=C[C@@H]1CCCC1C2=O (stereo partly drawn) ?
Response line: > 100 µM

###

system: SW-620 colon; assay: NCI tumour cell line growth inhibition, 48 h; in the data active = GI50 below about 0.43 µM; inactive = the rest
Hello, when you answer, please use one of the following outcomes: yes (1) for active, no (0) for inactive

Prompt line: Called result for COc1ccc2c(c1)C(=O)/C(=C/c1ccc(OCC(=O)c3ccc(Cl)cc3)cc1)O2
Response line: no (0)

Prompt line: Record request — test call for O=C1c2cccnc2-c2nc(-c3ccccc3)cc3c2c1nc1ccccc13
Response line: no (0)

Prompt line: Any idea what this test logged for N=C(N)c1ccc(-c2ccc(-c3ccccc3)o2)cc1 ?
Response line: no (0)

Prompt line: Field: outcome | Entry: C[C@@H](Oc1cc(-n2cnc3ccc(OCC4CCN(C)CC4)cc32)sc1C(N)=O)c1ccccc1C(F)(F)F
Response line: yes (1)

Prompt line: Give the logged outcome of this assay for the following compound: COc1cc2c(cc1OCCCN1CCN(CCCOc3cc4c(cc3OC)C(=O)C3CCC[C@H]3C=N4)CC1)N=C[C@@H]1CCCC1C2=O (stereo not given in full)
Response line: no (0)

Prompt line: Which outcome was assigned to CC/C(=C(/CC)c1ccc(OP(=O)([O-])[O-])cc1)c1ccc(OP(=O)([O-])[O-])cc1.N.N.N.N.[Pt+4].[Pt+4] in this test?
Response line: no (0)

Prompt line: Answer briefly: the call reported for c1ccc(COc2ccc(Nc3ncnc4ccc(-c5ccco5)cc34)cc2)cc1 in this assay.
Response line: no (0)

Prompt line: Outcome logged for Cn1cccc1C1CC(=O)N(CCC[Se]C#N)C1=O (stereo not given) in this assay:
Response line: no (0)

Prompt line: Look up the recorded call for COc1cccc(C2C3=C(COC3=O)N(CCO)c3cc4c(cc32)CCC4)c1 (stereo not given) in this test.
Response line: yes (1)

Prompt line: Tell me the assay call for CC1OC(OC2C(OC3CCC4(C)C(CCC5(C)C4CC=C4C6CC(C)(C)CCC6(CO)C(O)CC45C)C3(C)C)OC(C(=O)O)C(OC3OC(COC4OC(CO)C(O)C(O)C4O)C(O)C(O)C3O)C2O)C(O)C(O)C1O (stereo not given) please.
Response line: no (0)

Prompt line: So what was the verdict on CCN1C(=O)N(CC)C2C1NN=c1s/c(=C\c3ccc([N+](=O)[O-])cc3)c(=O)n12 (stereo not given) in this test?
Response line: yes (1)

Prompt line: Could you kindly confirm the outcome this assay logged for C#CCSc1nnnn1-c1ccc(Br)c(C)c1 ?
Response line: no (0)

Prompt line: Tell me the assay call for CCCCCCCCCCCCCCCc1ccc(C(=O)C[n+]2ccccc2)cc1 please.
Response line: yes (1)

Prompt line: Record request — test call for C/C(=N\NC(=S)Nc1ccccc1)c1ccccn1
Response line: yes (1)

Prompt line: Name the outcome recorded for NCCCNCCCNc1nc2ccccc2c2[nH]c3ccccc3c12 in the assay.
Response line: yes (1)
